B1: PKD2L1 (parent)
chain: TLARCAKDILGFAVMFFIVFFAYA

Variants of: B1
Test: protein stability index of a GFP-peptide fusion (GPS, HEK-293T) (PSI 1-6); higher = more stable;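 also: lentivirally expressed fusions sorted by FACS into six bins by GFP to DsRed ratio, PSI derived from sequencing read proportions per bin multiplied by bin number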
Conditions: c terminus: a fixed tail appended
RESULT TYPE: protein stability index

{"MUT": "L2G", "RESULT TYPE": "protein stability index", "MEAS VALUE": 3.03}
{"MUT": "K7V", "RESULT TYPE": "protein stability index", "MEAS VALUE": 4.08}
{"MUT": "A24C", "RESULT TYPE": "protein stability index", "MEAS VALUE": 1.23}
{"MUT": "L10I", "RESULT TYPE": "protein stability index", "MEAS VALUE": 2.42}
{"MUT": "A6G", "RESULT TYPE": "protein stability index", "MEAS VALUE": 1.59}
{"MUT": "M15Q", "RESULT TYPE": "protein stability index", "MEAS VALUE": 3.41}
{"MUT": "A3N", "RESULT TYPE": "protein stability index", "MEAS VALUE": 1.53}
{"MUT": "A6W", "RESULT TYPE": "protein stability index", "MEAS VALUE": 2.75}
{"MUT": "Y23E", "RESULT TYPE": "protein stability index", "MEAS VALUE": 2.56}
{"MUT": "F17R", "RESULT TYPE": "protein stability index", "MEAS VALUE": 2.98}
{"MUT": "D8R", "RESULT TYPE": "protein stability index", "MEAS VALUE": 2.06}
{"MUT": "A22N", "RESULT TYPE": "protein stability index", "MEAS VALUE": 2.92}
{"MUT": "F12W", "RESULT TYPE": "protein stability index", "MEAS VALUE": 3.56}
{"MUT": "F16C", "RESULT TYPE": "protein stability index", "MEAS VALUE": 1.79}
{"MUT": "Y23W", "RESULT TYPE": "protein stability index", "MEAS VALUE": 2.72}
{"MUT": "R4F", "RESULT TYPE": "protein stability index", "MEAS VALUE": 2.68}
{"MUT": "C5Y", "RESULT TYPE": "protein stability index", "MEAS VALUE": 2.22}
{"MUT": "M15C", "RESULT TYPE": "protein stability index", "MEAS VALUE": 2.86}
{"MUT": "L2W", "RESULT TYPE": "protein stability index", "MEAS VALUE": 1.67}
{"MUT": "C5Q", "RESULT TYPE": "protein stability index", "MEAS VALUE": 2.29}
{"MUT": "L10Q", "RESULT TYPE": "protein stability index", "MEAS VALUE": 3.08}
{"MUT": "M15K", "RESULT TYPE": "protein stability index", "MEAS VALUE": 2.58}
